# experimental system: human-thrombin (product of Sigma) (human)
Potency overview
A bare number is all that is needed in reply.

peptide (J) Suc-Phe-Glu-Pro-Ile-Pro-Glu-Tyr-Tyr-NH2
0.07
peptide (N) Suc-Phe-Glu-Pro-Ile-Pro-Glu-Tyr-Tyr-NH(CH2)3OH
0.06
peptide (I) Suc-Phe-Glu-Pro-Ile-Pro-Glu-Tyr-Tyr-OH
0.83
peptide (B) Gly-Asp-Phe-Glu-Glu-Ile-Pro-Tyr-Tyr-Tyr-Leu-Gln
0.48
peptide (K) Suc-Phe-Glu-Pro-Ile-Pro-Glu-Tyr-Tyr-NH(CH2)2COOH
0.21
peptide (R) Suc-Phe-Glu-Pro-Ile-Pro-Glu-Tyr-Tyr-Leu-NHEt
0.18

Inquiry: What is its Potency for human-thrombin (product of Sigma) (human)? Entry: peptide (V) Suc-Phe-Glu-Pro-Ile-Pro-Glu-Tyr-Tyr-Leu-(L)Asu(OMe)OMe
Reply text: 0.22

Origin of the recorded values: patent US5767235
